Reference for the values: the supplement of paper PMC12632987

molecular target: GABARAP, O95166; test: median log2 fold change of GCK-ALFA target abundance (FLAG IP / Myc IP barcode read proportion) (log2 ratio); each designed protein is fused to an ALFA-tag nanobody in HEK293 cells to bring the named protein to FLAG-tagged glucokinase (GCK); Myc marks an untargeted standard; higher = target protein stabilised (more abundant); conditions: target protein: 3xFLAG-MCP-GCK-ALFA reporter; HEK293 landing pad (RPLP)
Sequence (O95166 whole entry, the tested form may be a part): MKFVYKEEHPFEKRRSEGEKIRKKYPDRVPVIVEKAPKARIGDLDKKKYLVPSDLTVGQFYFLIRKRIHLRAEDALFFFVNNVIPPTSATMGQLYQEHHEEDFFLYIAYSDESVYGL
Whole data set: some 4,500 sequences, median “median log2 fold change of GCK-ALFA target abundance (FLAG IP / Myc IP barcode read proportion)” near 0.078, cut for the lowest 2% near -0.6. The full list was thinned out, with the lowest values kept by preference.
observed property: median log2 fold change

>  <binder>
GBRAP_177_5010 (protein) SRLAEIEAAADDPEALLALVAATDLRELSREELLALLRALARAIAREGPRPELLEAAVRVAVALITDHGVSLAEVVAILIEHADPDTVEEVVERVAERLA

>  <recorded result>
0.0662

$$$$
>  <binder>
GBRAP_160_4426 (protein) SAKLEKAKKLITEIVEETAEMMEGESAEERIVLVRVAEGEILLELEELGLLTDEIEAVIDETFAAIAAHIAAHPDISQEELRALLKAAEEKIKKQLEKEA

>  <recorded result>
-0.243

$$$$
>  <binder>
GBRAP_125_3105 (protein) MEEEILEALKLLAKALGFDDEDAEEAARLAREFSVKMTLYALLKAEGEEELADLVEKLTEEQAKKVLLKVAEWLKKNPNATKEEVLKKLKEVILEELEKA

>  <recorded result>
-0.694

$$$$
>  <binder>
GBRAP_35_5618 (protein) MSDEELTDMLVDLIEDATAAVPDVSVETLAAIAASLSRAVRSLAEELAGNAENLRRLADAVEALRDAIERHHGDDPLAQETIAALTATAEEIRARAAASE

>  <recorded result>
-1.48

$$$$
